The measured values listed here are drawn from patent US6730792B2.

measured.target: human β3 adrenergic receptor (Homo sapiens)
Construct: expressed in transfected cells; host or cells: DXB-11 Chinese hamster ovary (CHO) cell line, stably transfected (phd expression vector)
experiment.summary: whole cell receptor coupled c-AMP assay, human β3 receptor in CHO cells (EC50, Emax relative to isoproterenol)
Type: cell-based
test.settings: Emax ± SEM; average of at least 3 runs except as otherwise indicated; tested as the isolated form listed
Exercise: for every item that follows, state its recorded Emax (%) ± SEM.
Express your answer in %, writing the number without its unit.

Lookup: I have this compound here, CC(C)(Cc1ccc(Oc2ncccc2C(N)=O)cc1)NC[C@H](O)COc1ccccc1-c1ccoc1.Cl , and I need its recorded Emax (%) ± SEM.
Found: 67.9

Lookup: What value of Emax (%) ± SEM has been recorded for this entry: CC(C)(Cc1ccc(Oc2ccccc2C(N)=O)cc1)NC[C@H](O)COc1ccccc1-c1ccon1.Cl
Found: 69.2

Lookup: Report Emax (%) ± SEM for CC(C)(Cc1ccc(Oc2ccc(C#N)s2)cc1)NC[C@H](O)COc1ccccc1-c1nccs1.O=C(O)C(F)(F)F please.
Found: 57.4

###

measured.target: human β3 adrenergic receptor (Homo sapiens)
Construct: expressed in transfected cells; host or cells: DXB-11 Chinese hamster ovary (CHO) cell line, stably transfected (phd expression vector)
experiment.summary: whole cell receptor coupled c-AMP assay, human β3 receptor in CHO cells (EC50, Emax relative to isoproterenol)
Assay type: cell-based
test.settings: Emax ± standard error of the mean; average of at least 3 runs except where n = 1; compound tested in the isolated form listed
Threshold-based label: Emax (%) ± SEM under 40% gives Satisfied, Emax (%) ± SEM not under 40% gives Not satisfied.

Lookup: In the record for CC(C)(Cc1ccc(Oc2ccc(C#N)cc2Cl)cc1)NC[C@H](O)COc1ccccc1-c1cccs1.O=C(O)C(F)(F)F , is Emax (%) ± SEM less than 40%?
Found: Not satisfied

Lookup: Check if Emax (%) ± SEM falls below 40% for COC(=O)c1ccc(Oc2ccc(CC(C)(C)NC[C@H](O)COc3ccccc3-c3ccno3)cc2)nc1 .
Found: Satisfied

Lookup: Given the entry CC(C)(Cc1ccc(Oc2ccc(C#N)cc2F)cc1)NC[C@H](O)COc1ccccc1-c1ccno1.O=C(O)C(F)(F)F , would its reported Emax (%) ± SEM be below 40%?
Found: Satisfied

Lookup: Dear reviewer, please state whether CC(C)(Cc1ccc(Oc2ccccc2C#N)cc1)NC[C@H](O)COc1ccccc1-c1cccs1.O=C(O)C(F)(F)F has Emax (%) ± SEM strictly beneath 40%.
Found: Not satisfied

Lookup: Please state whether Emax (%) ± SEM is below 40% for CC(C)(Cc1ccc(Oc2ccc(C(N)=O)cc2F)cc1)NC[C@H](O)COc1ccccc1-c1cscn1.Cl
Found: Satisfied

Lookup: Is Emax (%) ± SEM of COC(=O)c1ccc(Oc2ccc(CC(C)(C)NC[C@H](O)COc3ccccc3-c3nccs3)cc2)nc1 strictly below 40%?
Found: Not satisfied

Lookup: Please indicate whether the reported Emax (%) ± SEM of CC(C)(Cc1ccc(Oc2ncccc2C#N)cc1)NC[C@H](O)COc1ccccc1-c1cccs1 is strictly below 40%.
Found: Not satisfied

###

measured.target: human β3 adrenergic receptor (Homo sapiens)
Construct: expressed in transfected cells; host or cells: DXB-11 Chinese hamster ovary (CHO) cell line, stably transfected (phd expression vector)
experiment.summary: whole cell receptor coupled c-AMP assay, human β3 receptor in CHO cells (EC50, Emax relative to isoproterenol)
Assay type: cell-based
test.settings: Emax ± standard error of the mean; average of at least 3 runs except where n = 1; compound tested in the isolated form listed
Record form. Attribute: Emax (%) ± SEM. Fill in for each entry.

Lookup: Emax (%) ± SEM lookup needed for CC(C)(Cc1ccc(Oc2ncccc2C#N)cc1)NC[C@H](O)COc1ccccc1N1CCCC1=O [Example 58] , thanks.
Found: 21.0 ± 3.4%

Lookup: Return reported Emax (%) ± SEM; argument: CC(C)(Cc1ccc(Oc2ccc(C#N)cn2)cc1)NC[C@H](O)COc1ccccc1-c1nccs1 [Example 6]
Found: 58.7 ± 1.8%

Lookup: Entry under review: CC(C)(Cc1ccc(Oc2ncccn2)cc1)NC[C@H](O)COc1ccccc1-c1cccs1.O=C(O)C(F)(F)F [Example 150] . Reported Emax (%) ± SEM?
Found: 69.8 ± 6.0%

Lookup: Name the recorded Emax (%) ± SEM for CC(C)(Cc1ccc(Oc2ccc(C(F)(F)F)cc2Cl)cc1)NC[C@H](O)COc1ccccc1-c1ccno1.O=C(O)C(F)(F)F [Example 172] .
Found: 40.4 ± 8.8%

Lookup: State the recorded Emax (%) ± SEM for this entry: CC(C)(Cc1ccc(Oc2ccc(S(C)(=O)=O)cc2)cc1)NC[C@H](O)COc1ccccc1-c1nccs1 [Example 130]
Found: 49.5 ± 3.4%

Lookup: Which Emax (%) ± SEM reading was recorded for the compound CC(C)(Cc1ccc(Oc2cccnc2C#N)cc1)NC[C@H](O)COc1ccccc1-c1cccs1.O=C(O)C(F)(F)F [Example 143] ?
Found: 67.2 ± 4.8%

Lookup: State the recorded Emax (%) ± SEM for this entry: COC(=O)c1ccc(Oc2ccc(CC(C)(C)NC[C@H](O)COc3ccccc3-c3ccnn3C)cc2)nc1 [Example 113]
Found: 20.7 n = 1%

###

Would you mind telling me the reported Emax (%) ± SEM of each entry?
measured.target: human β3 adrenergic receptor (Homo sapiens, UniProt P13945)
Construct: expressed in transfected cells; host or cells: DXB-11 Chinese hamster ovary (CHO) cell line, stably transfected (phd expression vector)
Sequence (P13945 whole entry): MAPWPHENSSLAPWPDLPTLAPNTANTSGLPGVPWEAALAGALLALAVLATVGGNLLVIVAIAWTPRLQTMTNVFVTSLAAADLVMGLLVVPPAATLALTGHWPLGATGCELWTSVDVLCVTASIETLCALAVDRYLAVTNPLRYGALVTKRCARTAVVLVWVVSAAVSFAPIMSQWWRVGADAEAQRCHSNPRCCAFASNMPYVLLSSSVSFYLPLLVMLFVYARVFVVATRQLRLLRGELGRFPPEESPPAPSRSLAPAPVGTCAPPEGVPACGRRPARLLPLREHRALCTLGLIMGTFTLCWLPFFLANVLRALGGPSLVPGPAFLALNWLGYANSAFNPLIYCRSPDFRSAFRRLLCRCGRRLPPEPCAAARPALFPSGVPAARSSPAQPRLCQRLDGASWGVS
experiment.summary: whole cell receptor coupled c-AMP assay, human β3 receptor in CHO cells (EC50, Emax relative to isoproterenol)
Format: cell-based
test.settings: Emax ± standard error of the mean; average of at least 3 runs except where n = 1; compound tested in the isolated form listed
Reply numerically in %, unit not repeated.

Lookup: Give the measured Emax (%) ± SEM of CC(C)(Cc1ccc(Oc2ccc(C(N)=O)cc2)cc1)NC[C@H](O)COc1ccccc1-c1cccs1.O=C(O)C(F)(F)F .
Found: 73.6

Lookup: Please report the recorded Emax (%) ± SEM for CC(C)(Cc1ccc(-c2ccccc2C#N)cc1)NC[C@H](O)COc1ccccc1-c1ccno1.O=C(O)C(=O)O .
Found: 37.4

Lookup: # input molecule: CC(C)(Cc1ccc(Oc2ccc(C(N)=O)cc2F)cc1)NC[C@H](O)COc1ccccc1-c1nccs1.O=C(O)C(F)(F)F ; wanted: its Emax (%) ± SEM
Found: 49.5

Lookup: Which measured Emax (%) ± SEM value corresponds to CC(C)(Cc1ccc(Oc2ccc(C(N)=O)cc2)cc1)NC[C@H](O)COc1ccccc1-n1cccc1.Cl ?
Found: 41.3

Lookup: Recorded Emax (%) ± SEM for CC(C)(Cc1ccc(Oc2ccc(C(N)=O)cn2)cc1)NC[C@H](O)COc1ccccc1-c1nc2ccccc2s1 , please?
Found: 20.8

Lookup: Entry CC(C)(Cc1ccc(Oc2ccc(C(N)=O)cc2)cc1)NC[C@H](O)COc1ccccc1-c1nccs1.O=C(O)C(F)(F)F has what Emax (%) ± SEM?
Found: 46.7

Lookup: Could you share which Emax (%) ± SEM value was measured for CC(C)(Cc1ccc(Oc2ccc(C(N)=O)nc2)cc1)NC[C@H](O)COc1ccccc1-c1ccon1.Cl ?
Found: 54.5

###

measured.target: human β3 adrenergic receptor (Homo sapiens, UniProt P13945)
Construct: expressed in transfected cells; host or cells: DXB-11 Chinese hamster ovary (CHO) cell line, stably transfected (phd expression vector)
experiment.summary: whole cell receptor coupled c-AMP assay, human β3 receptor in CHO cells (EC50, Emax relative to isoproterenol)
Assay type: cell-based
test.settings: Emax ± standard error of the mean; average of at least 3 runs except where n = 1; compound tested in the isolated form listed
Answer each item with its documented Emax (%) ± SEM.

Lookup: Request the reported Emax (%) ± SEM associated with CC(C)(Cc1ccc(Oc2ccc(Cl)nn2)cc1)NC[C@H](O)COc1ccccc1-c1nccs1.O=C(O)C(F)(F)F
Found: 88.3 ± 8.0%

Lookup: Give the measured Emax (%) ± SEM of CC(C)(Cc1ccc(Oc2ccc(C(N)=O)cn2)cc1)NC[C@H](O)COc1ccccc1N1CCNCC1.Cl.Cl.Cl .
Found: 13.7 ± 3.5%

Lookup: Item CC(C)(Cc1ccc(Oc2ncccc2C#N)cc1)NC[C@H](O)COc1ccc(-c2ccno2)cc1.O=C(O)C(F)(F)F has what recorded Emax (%) ± SEM?
Found: 24.7 ± 5.2%

Lookup: Find the recorded Emax (%) ± SEM belonging to CC(C)(Cc1ccc(Oc2ncccc2C(N)=O)cc1)NC[C@H](O)COc1ccccc1-c1ccncn1 and report it.
Found: 48.8 ± 5.5%

###

measured.target: human β3 adrenergic receptor (Homo sapiens, UniProt P13945)
Construct: expressed in transfected cells; host or cells: DXB-11 Chinese hamster ovary (CHO) cell line, stably transfected (phd expression vector)
experiment.summary: whole cell receptor coupled c-AMP assay, human β3 receptor in CHO cells (EC50, Emax relative to isoproterenol)
Type: cell-based
test.settings: Emax ± standard error of the mean; average of at least 3 runs except where n = 1; compound tested in the isolated form listed
observable: Emax (%) ± SEM
Write down the numeric answer in % and omit the unit.

Lookup: GET /values?readout=Emax (%) ± SEM&item= CC(C)(Cc1ccc(Oc2ncccc2C(N)=O)cc1)NC[C@H](O)COc1ccccc1-c1ccno1.Cl
Found: 69.5

Lookup: Which measured Emax (%) ± SEM value corresponds to CC(C)(Cc1ccc(Oc2ncccc2C(N)=O)cc1)NC[C@H](O)COc1ccccc1N1CCNC1=O ?
Found: 21.1

Lookup: Please report the recorded Emax (%) ± SEM for CC(C)(Cc1ccc(Oc2ccc(C(N)=O)cc2Cl)cc1)NC[C@H](O)COc1ccccc1-c1cccs1.O=C(O)C(F)(F)F .
Found: 67.3

Lookup: Returns the measured Emax (%) ± SEM for the input molecule. Input: CC(C)(Cc1ccc(Oc2ccc(C#N)cc2F)cc1)NC[C@H](O)COc1ccccc1-c1cccs1.O=C(O)C(F)(F)F
Found: 45.1

Lookup: Could you tell me which Emax (%) ± SEM is on file for CC(C)(Cc1ccc(Oc2ccc(C(N)=O)cc2Cl)cc1)NC[C@H](O)COc1ccccc1-c1ccno1.O=C(O)C(F)(F)F ?
Found: 58.3
